- Method: Half-life was determined
- Type: ADME
Quantity name: half-life (h)
Expressed in h, but write only the number.

Worked cases, half-life given:
C=C(C=O)[C@H]1CC(OC(C)=O)[C@@]23O[C@@H]2C(C[C@]2(C)O[C@H]2C2=CC(C)=C(O2)C1OC(C)=O)OC3=O (some centres undefined) = 0.97
C=C(C(=O)OC)[C@H]1CC(OC(C)=O)[C@@]23O[C@@H]2C(C[C@]2(C)O[C@H]2C2=CC(C)=C(O2)C1OC(C)=O)OC3=O (some centres undefined) = 1.08
CC(=O)OC1C2=C(C)C=C(O2)[C@@H]2O[C@@]2(C)CC2OC(=O)[C@@]3(O[C@H]23)C(OC(C)=O)C[C@@H]1C1(C)CO1 (some centres undefined) = 1.17

Consider the molecule C=C(C)[C@@H]1CC2=C(C=O)C=C(O2)[C@@H]2O[C@@]2(C)C[C@H]2OC(=O)[C@@]3(O[C@H]23)[C@@H](OC(C)=O)C1 [LOPHOTOXIN] . State its measured half-life. 40

----------
- Method: Rate constant of solvolysis for the compound was determined
- Assay type: ADME
Listed next: entries and their corresponding Ksolv.
Please give a number only; it is taken to be in h⁻¹.

# example entries with known answers
C=C(C)[C@@H]1CC2=C(C=O)C=C(O2)[C@@H]2O[C@@]2(C)C[C@H]2OC(=O)[C@@]3(O[C@H]23)[C@@H](OC(C)=O)C1 [LOPHOTOXIN] = 0.017
C=C(C(=O)OC)[C@H]1CC(OC(C)=O)[C@@]23O[C@@H]2C(C[C@]2(C)O[C@H]2C2=CC(C)=C(O2)C1OC(C)=O)OC3=O (some centres undefined) = 0.638
C=C(C=O)[C@H]1CC(OC(C)=O)[C@@]23O[C@@H]2C(C[C@]2(C)O[C@H]2C2=CC(C)=C(O2)C1OC(C)=O)OC3=O (some centres undefined) = 0.719

Please report Ksolv for the following compound: CC(=O)OC1C2=C(C)C=C(O2)[C@@H]2O[C@@]2(C)CC2OC(=O)[C@@]3(O[C@H]23)C(OC(C)=O)C[C@@H]1C1(C)CO1 (some centres undefined) 0.596
